experiment notes: Mouse Acute Toxicity Assay (oral, 7 days observation)
measurement conditions: in vivo, ICR-type male mice, single forced oral administration 1000 and 2000 mg/kg, estimated from survival ratio
reported metric: LD50 at 168 h

molecule: COc1c(O)c2cc(OC(C)=O)ccc2oc1=O [Compound 270]
result: > 2000 mg/kg

molecule: CC(=O)Oc1ccc2oc(=O)c(OC/C=C(\C)CCC=C(C)C)c(O)c2c1 [Compound 271]
result: > 1000 mg/kg

molecule: CC(C)=CCC/C(C)=C/COc1ccc2oc(=O)c(O)c(O)c2c1 [Compound 280]
result: > 1000 mg/kg

molecule: CC(C)=CCC/C(C)=C/COc1c(O)c2cc(O)ccc2oc1=O [Compound 269]
result: > 1000 mg/kg
